# assaySystem: von Hippel-Lindau disease tumor suppressor/SWI/SNF-related matrix-associated actin-dependent regulator of chromatin subfamily A member 4 (Homo sapiens, UniProt P51532+P40337)
# Sequence (P40337 whole entry, looked up, the tested form may be a part): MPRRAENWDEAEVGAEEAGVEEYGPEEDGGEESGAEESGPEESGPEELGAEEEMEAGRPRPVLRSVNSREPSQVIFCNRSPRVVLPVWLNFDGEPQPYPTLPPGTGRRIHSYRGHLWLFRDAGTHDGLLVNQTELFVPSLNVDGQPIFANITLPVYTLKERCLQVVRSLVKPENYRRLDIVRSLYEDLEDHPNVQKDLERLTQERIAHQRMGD
# Sequence (P51532 whole entry, looked up, the tested form may be a part): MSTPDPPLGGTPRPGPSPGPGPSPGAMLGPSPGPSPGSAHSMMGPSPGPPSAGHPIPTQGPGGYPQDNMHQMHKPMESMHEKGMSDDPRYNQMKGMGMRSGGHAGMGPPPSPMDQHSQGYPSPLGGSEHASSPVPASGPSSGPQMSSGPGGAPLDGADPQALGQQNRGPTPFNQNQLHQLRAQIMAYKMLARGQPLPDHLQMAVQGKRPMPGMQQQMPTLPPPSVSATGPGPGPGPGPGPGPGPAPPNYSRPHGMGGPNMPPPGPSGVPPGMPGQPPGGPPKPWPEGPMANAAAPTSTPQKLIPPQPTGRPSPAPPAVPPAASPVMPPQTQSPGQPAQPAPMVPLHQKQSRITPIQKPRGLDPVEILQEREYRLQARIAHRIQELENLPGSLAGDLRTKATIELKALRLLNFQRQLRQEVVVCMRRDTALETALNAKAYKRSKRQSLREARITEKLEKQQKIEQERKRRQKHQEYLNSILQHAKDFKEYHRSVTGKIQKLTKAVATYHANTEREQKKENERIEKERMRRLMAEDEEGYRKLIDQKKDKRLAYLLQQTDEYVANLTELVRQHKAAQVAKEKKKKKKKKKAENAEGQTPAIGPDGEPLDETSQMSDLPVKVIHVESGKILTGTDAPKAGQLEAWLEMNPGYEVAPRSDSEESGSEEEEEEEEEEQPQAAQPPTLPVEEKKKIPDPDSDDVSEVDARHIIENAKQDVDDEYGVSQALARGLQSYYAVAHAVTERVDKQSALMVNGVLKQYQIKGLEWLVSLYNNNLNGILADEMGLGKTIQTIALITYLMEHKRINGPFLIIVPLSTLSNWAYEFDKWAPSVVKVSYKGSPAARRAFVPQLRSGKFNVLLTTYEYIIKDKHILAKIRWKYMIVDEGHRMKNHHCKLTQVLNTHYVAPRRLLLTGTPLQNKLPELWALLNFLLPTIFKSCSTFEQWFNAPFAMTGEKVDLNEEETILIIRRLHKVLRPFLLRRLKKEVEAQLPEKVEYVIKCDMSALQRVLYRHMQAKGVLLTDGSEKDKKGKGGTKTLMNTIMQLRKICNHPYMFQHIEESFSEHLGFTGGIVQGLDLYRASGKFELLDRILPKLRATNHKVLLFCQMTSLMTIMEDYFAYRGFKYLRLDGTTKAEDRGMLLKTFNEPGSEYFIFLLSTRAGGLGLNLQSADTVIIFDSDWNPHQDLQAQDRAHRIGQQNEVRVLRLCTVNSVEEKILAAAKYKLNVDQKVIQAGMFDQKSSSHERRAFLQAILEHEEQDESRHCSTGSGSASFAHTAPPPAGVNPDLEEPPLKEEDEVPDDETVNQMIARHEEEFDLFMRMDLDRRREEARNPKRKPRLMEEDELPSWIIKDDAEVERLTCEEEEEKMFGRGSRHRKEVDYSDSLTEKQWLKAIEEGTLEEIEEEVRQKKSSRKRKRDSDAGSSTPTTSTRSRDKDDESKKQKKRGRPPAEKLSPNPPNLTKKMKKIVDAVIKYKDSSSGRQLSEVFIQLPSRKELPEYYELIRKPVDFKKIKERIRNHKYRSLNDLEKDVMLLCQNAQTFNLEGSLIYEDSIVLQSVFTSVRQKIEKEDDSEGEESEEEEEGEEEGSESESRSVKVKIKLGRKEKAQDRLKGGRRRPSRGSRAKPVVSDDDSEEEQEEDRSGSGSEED
# protocol: PROTAC activity at VHL/C-terminal HiBiT fused SMARCA4 in human HeLa cells assessed as induction of SMARCA4 degradation by measuring maximal efficacy incubated for 24 hrs by Nano-Glo HiBiT analysis relative to control
# Type: cell-based
Exercise: for every item that follows, state its recorded Emax.
Reply with just the number (in %).

# Emax of Cc1cc([C@H](C(=O)N2C[C@H](O)C[C@H]2C(=O)N[C@@H](CC(=O)NCCCCCCn2cc(-c3cc(-c4ccccc4O)nnc3N)cn2)c2ccc(-c3scnc3C)cc2)C(C)C)on1 = 84

# Emax of Cc1ncsc1-c1ccc([C@H](C)NC(=O)[C@@H]2C[C@@H](O)CN2C(=O)[C@@H](NC(=O)[C@H]2CC[C@H](CN3CCC4(CCC(n5cc(-c6cc(-c7ccccc7O)nnc6N)cn5)CC4)CC3)CC2)C(C)(C)C)cc1 = 66

# Emax of Cc1ncsc1-c1ccc([C@H](C)NC(=O)[C@@H]2C[C@@H](O)CN2C(=O)[C@@H](NC(=O)CCCn2cc(-c3cc(-c4ccccc4O)nnc3N)cn2)C(C)(C)C)cc1 = 84
